assayedTarget: T1, S15-extra cellular domain (ECD) monomer (human, UniProt Q6ZMC9 20-263)
T1 construct: also called S15 monomer protein
T1 sequence: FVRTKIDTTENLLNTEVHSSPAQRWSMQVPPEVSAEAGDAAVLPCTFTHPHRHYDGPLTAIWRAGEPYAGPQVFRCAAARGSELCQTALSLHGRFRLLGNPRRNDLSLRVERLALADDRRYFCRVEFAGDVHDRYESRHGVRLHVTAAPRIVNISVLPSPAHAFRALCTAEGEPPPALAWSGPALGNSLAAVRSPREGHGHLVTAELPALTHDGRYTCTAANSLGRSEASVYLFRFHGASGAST
experimentNotes: BLI (Octet RED96), mAb on anti-human Fc sensors, S15-ECD monomer in solution, global fit
Overview of recorded pKd for various binders
Kindly note that pKd refers to -log10 of the concentration in mol/L and answer with the value alone.

[[record]]
binder = "77A (antibody, V domains shown, Mouse anti-human Siglec-15 mAb; also called NC77) VH: EVQLQQSGAELVRPGASVKLSCTASGFNIKDDYMHWVKQRPEQGLEWIGCIDPENGDTEYASKFQGKATITADTSSNTVYLQLSSLTSEDTAVYYCTTYVGFGYWGQGTLVTVSA VL: DVLMTQSPLSLPVSLGDQASISCRSSQNIVHSNGNTYLEWYLKKPGQSPKLLIYKVSNRFSGVPDRFSGSGSGTDFTLKISRVEAEDLGMYYCFQGSHVPLTFGAGTKLELK"
experimentalreadout = "pKd"
valuemeasured = 8.71

[[record]]
binder = "5G12 (antibody, V domains shown, Mouse anti-human Siglec-15 mAb) VH: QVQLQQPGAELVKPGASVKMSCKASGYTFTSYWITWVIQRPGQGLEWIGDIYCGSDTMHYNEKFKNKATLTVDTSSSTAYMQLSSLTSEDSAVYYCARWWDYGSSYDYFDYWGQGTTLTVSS VL: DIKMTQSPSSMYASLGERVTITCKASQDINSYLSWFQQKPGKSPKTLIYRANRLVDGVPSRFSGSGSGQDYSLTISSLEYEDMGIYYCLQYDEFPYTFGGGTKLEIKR"
experimentalreadout = "pKd"
valuemeasured = 9.52


What does the data say about its pKd? Entry: 83B (antibody, V domains shown, Mouse anti-human Siglec-15 mAb; also called NC83) VH: EVQLQQSGPELVKPGASVKMSCKASGYTFTDYNMHWVKQSHGKSLEWIGYINPNNGGTSYNQKFKDKATLTVNKSSSTAFMELRSLASEDSAVYYCARSDWEDCWGQGTTLTVSS VL: EIQMTQSPSSMSASLGDRITITCQATQDIVKNLNWYQQKPGKPPSFLIYYATELAEGVPSRFSGSGSGSDYSLTISNLESEDFADYYCLQFYEFPYTFGGGTKLEIK
8.92
